- Tested on: HCC 2998
- ASSAY NOTES: NCI tumour cell line growth inhibition, 48 h
Active and inactive are the calls of the source. Rule as the data show it: active = GI50 up to about 1.1 µM and inactive = higher.
// allowed return values: active, inactive

compound="COC(=O)C(COC(C)=O)NC(=O)/C=C/c1ccc(O)c(OC(C)=O)c1 (stereo unspecified)" discrete_label=inactive
compound=CCOC(=O)c1ccc(NCc2ccc3nc(OC)c(OC)nc3c2)cc1 discrete_label=inactive
compound=CCSCCCC(=O)O discrete_label=inactive
compound="O=C(c1ccccc1)C1C[C@H]2CO[C@H](c3ccccc3)N2C1=O (stereo partly specified)" discrete_label=inactive
compound=CCOC(=O)N1CCC(=C2c3ccc(Cl)cc3CCc3cccnc32)CC1 discrete_label=inactive
compound=COC(=O)C1=C(C)NC(C)=C(C(=O)OC)C1c1ccccc1NO discrete_label=inactive
compound=CN(C)CCc1ccc(Cl)cc1Cl discrete_label=inactive
compound="COC(=O)[C@@]1(C)CCC[C@]2(C(=O)O)C3Cc4occc4[C@H](C)[C@@H]3CCC21 (stereo partly specified)" discrete_label=inactive

Answer briefly: the call reported for COc1ccc2oc(C(=O)O)c3c2c1CCC3CCC(=O)O (stereo unspecified) in this assay.
inactive

Answer briefly: the call reported for C=C1CCC23CC(CC[C@@H]2[C@@]12C[C@@H](c1ccoc1)OC2=O)OC3=O (stereo partly specified) in this assay.
inactive
